# target under test: human TRPC6 (Homo sapiens)
# Sequence (Q9Y210 1-931): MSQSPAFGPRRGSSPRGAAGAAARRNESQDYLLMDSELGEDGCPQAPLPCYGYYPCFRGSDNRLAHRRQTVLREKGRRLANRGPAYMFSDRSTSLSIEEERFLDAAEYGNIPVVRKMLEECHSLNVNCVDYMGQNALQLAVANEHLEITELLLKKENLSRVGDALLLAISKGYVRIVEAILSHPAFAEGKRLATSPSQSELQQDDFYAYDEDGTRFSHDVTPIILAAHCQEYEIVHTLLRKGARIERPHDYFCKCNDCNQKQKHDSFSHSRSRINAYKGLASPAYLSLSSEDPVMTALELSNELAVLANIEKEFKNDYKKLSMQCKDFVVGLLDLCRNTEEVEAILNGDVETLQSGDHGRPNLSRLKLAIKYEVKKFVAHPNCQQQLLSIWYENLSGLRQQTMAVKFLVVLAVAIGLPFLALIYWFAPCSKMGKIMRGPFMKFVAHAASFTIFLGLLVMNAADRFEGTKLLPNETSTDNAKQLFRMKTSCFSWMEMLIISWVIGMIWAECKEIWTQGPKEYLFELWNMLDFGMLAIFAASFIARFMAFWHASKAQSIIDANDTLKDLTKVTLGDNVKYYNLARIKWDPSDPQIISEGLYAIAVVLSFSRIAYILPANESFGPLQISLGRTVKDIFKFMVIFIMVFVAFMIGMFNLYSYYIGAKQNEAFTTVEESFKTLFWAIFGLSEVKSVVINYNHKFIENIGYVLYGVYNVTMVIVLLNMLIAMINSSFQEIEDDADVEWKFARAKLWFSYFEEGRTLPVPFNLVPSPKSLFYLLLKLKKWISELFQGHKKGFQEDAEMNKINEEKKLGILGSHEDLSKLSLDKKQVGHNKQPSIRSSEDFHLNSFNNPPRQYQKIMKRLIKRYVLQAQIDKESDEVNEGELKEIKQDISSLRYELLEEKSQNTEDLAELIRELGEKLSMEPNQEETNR
# experimental details: TRPC6 calcium flux assay (FLIPR, OAG-stimulated calcium influx)
# stated conditions: HEK293 cells stably transfected with human TRPC6, read-out: hTRPC6 Potency
Structures can show the parent of a compound that is named as a salt.
test readout: pIC50
In textbook form, pIC50 equals minus log to base ten of the concentration in mol/L.

1. N#Cc1ccc(Cn2c(N3CC[C@H](F)[C@H](N)C3)nc3c(C(F)(F)F)cccc32)nc1 [Example 91] = 7.48
2. CN[C@H]1CCCN(c2nc3ccccc3n2CC(=O)N2CCC2)C1 [Example 266] = 4.80
3. Cc1cc(Cn2c(N3CC[C@@H](F)[C@H](N)C3)nc3cc(F)c(F)cc32)ccc1C#N (stereo in doubt) [Example 345] = 8.82
4. N#Cc1ccc(Cn2c(N3C[C@@H]4CC[C@@H](N)[C@@H]4C3)nc3ccccc32)nc1 [Example 79, hydrochloride] = 8.29
5. CCC1CN(C(=O)Cn2c(N3CC[C@@H](F)[C@H](N)C3)nc3cc(F)c(F)cc32)CCO1 (stereo partly shown) [Example 513] = 6.74
6. N#Cc1ccc(Cn2c(N3CC[C@H](F)[C@H](N)C3)nc3cc(Cl)c(Cl)cc32)nc1 [Example 82, hydrochloride] = 9.30

--- query ---
Item Cc1nnc(Cn2c(N3CC[C@@H](F)[C@H](N)C3)nc3c(F)cc(F)cc32)s1 [Example 552] has what recorded pIC50?
8.19
